target.desc: Left-right determination factor 2 (Homo sapiens) (UniProt O00292)
Sequence (O00292 whole entry, looked up): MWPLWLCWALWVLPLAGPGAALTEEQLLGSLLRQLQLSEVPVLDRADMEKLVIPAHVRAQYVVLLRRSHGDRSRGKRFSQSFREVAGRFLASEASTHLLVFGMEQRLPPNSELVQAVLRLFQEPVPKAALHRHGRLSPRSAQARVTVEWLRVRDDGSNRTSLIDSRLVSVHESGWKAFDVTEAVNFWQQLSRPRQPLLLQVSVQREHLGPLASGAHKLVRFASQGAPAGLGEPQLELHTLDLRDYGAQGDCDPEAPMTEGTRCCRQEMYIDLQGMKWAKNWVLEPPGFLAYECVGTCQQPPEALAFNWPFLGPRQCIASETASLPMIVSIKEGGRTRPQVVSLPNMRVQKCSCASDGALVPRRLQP
protocol: LEFTY2 binders on small-molecule microarrays, primary screen, biochemical, small-molecule microarray, 635 nm fluorescence scan (AID 1110)
experimental.conditions: LEFTY2 binding, higher = more signal
experimental.endpoint: composite z-score

| molecule | target.desc | experimental.value |
| --- | --- | --- |
| C=CCC(OC(C)=O)[C@@H]1[C@@H](N(Cc2ccc(-c3ccccc3)cc2)C(=O)Cc2ccc(OC)cc2)c2cc(OCCCO)ccc2N1C(=O)c1ccc2ccccc2n1 (stereo partly specified) | Left-right determination factor 2 (Homo sapiens) (UniProt O00292) | -0.259 |
| C[C@]1(C(=O)NCc2ccccc2)c2ccccc2C(=O)N(Cc2cc(F)cc(C(F)(F)F)c2)[C@H]1c1ccc(CO)cc1 | Left-right determination factor 2 (Homo sapiens) (UniProt O00292) | -1.57 |
| CCOC(=O)[C@H]1C[C@H]2O[C@@]23C[C@H]1C(=O)N1CCCC1[C@@H]3O[Si](C)(C)C(C)(C)C (stereo partly specified) | Left-right determination factor 2 (Homo sapiens) (UniProt O00292) | -0.0688 |
| COC(=O)[C@@]1(Cc2ccc(OC)cc2)[C@H]2c3cc(C(=O)N4CCCC4)n(Cc4ccccn4)c3C[C@H]2CN1C(=O)c1ccccc1 | Left-right determination factor 2 (Homo sapiens) (UniProt O00292) | -0.662 |
| CS(=O)(=O)CCOC(=O)C1=CC(CCCO)=CC(c2cccs2)N(Cc2cc3c(cc2Br)OCO3)C=C1C(=O)OCCS(C)(=O)=O (stereo unspecified) | Left-right determination factor 2 (Homo sapiens) (UniProt O00292) | 0.858 |
| COCCOC(=O)N1C(=O)[C@@]2(c3cc(C#CC4(O)CCCCCC4)ccc31)[C@H](C(=O)N1CCCCCCC1)[C@H]1C(=O)O[C@H](c3ccccc3)[C@H](c3ccccc3)N1[C@@H]2c1ccccc1OCCO | Left-right determination factor 2 (Homo sapiens) (UniProt O00292) | 0.487 |

###

Test system: Human papillomavirus type 1a protein E7 (residues 44-93)
protocol: HPV1a E7 fragment binders on microarrays, primary screen, biochemical, small-molecule microarray, residues 44-93, 635 nm fluorescence (AID 1108);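 further: E7 fragment applied at 1 µg/mL in TBST for 1 h at 4 C; score combines spot fluorescence with its signal to noise ratio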
experimental.conditions: small-molecule microarray binding, fluorescence 635 nm; higher = more signal
// map composite z-score to label using low = under -0.008, intermediate = from -0.008 up to 1, high = 1 and over

| compound | target.desc | class |
| --- | --- | --- |
| CC=CC(O)C1C=CC2C(=O)N(c3ccccc3)C(=O)C2N1Nc1ccc(C(C)C)cc1 (centres undefined) | Human papillomavirus type 1a protein E7 (residues 44-93) | high |
| Cc1cc(C)c(C(O)C2C=CC3C(=O)N(C)C(=O)C3N2Nc2ccccc2)c(C)c1 (centres undefined) | Human papillomavirus type 1a protein E7 (residues 44-93) | low |
| CO[C@H]1O[C@H](CO)[C@@H](OC(=O)Nc2ccc3c(c2)OCO3)[C@H](OC(=O)Nc2ccccc2)[C@H]1OC(=O)Nc1ccccc1 | Human papillomavirus type 1a protein E7 (residues 44-93) | high |
| COCCOC(=O)N1C(=O)[C@@]2(c3cc(C#CC4(O)CCCCCC4)ccc31)[C@H](C(=O)N1CCCCCCC1)[C@H]1C(=O)O[C@H](c3ccccc3)[C@H](c3ccccc3)N1[C@@H]2c1ccccc1OCCO | Human papillomavirus type 1a protein E7 (residues 44-93) | high |
| CCCNC(=O)[C@@H]1c2ccccc2C(=O)N(Cc2ccccc2)[C@H]1c1ccc(CO)cc1 | Human papillomavirus type 1a protein E7 (residues 44-93) | intermediate |
| NC(=O)NCC#Cc1ccc2c(c1)[C@]1(C(=O)N2)[C@H](C(=O)NC[C@H](O)c2ccccc2)[C@H]2C(=O)O[C@H](c3ccccc3)[C@H](c3ccccc3)N2[C@@H]1c1ccc(O)cc1 | Human papillomavirus type 1a protein E7 (residues 44-93) | high |
| CCOC(=O)C[C@H]1[C@H](OC(=O)c2ccc(-c3ccccc3)cc2)[C@@H](NC(=O)c2ccc(-c3ccccc3)cc2)c2cc(OCCCO)ccc2N1C(=O)Cc1ccc(OC)cc1 | Human papillomavirus type 1a protein E7 (residues 44-93) | intermediate |
| O=C1OCC=C[C@H]2OC34C=CCN(c5ccc6ccccc6c5)C(=O)[C@H]3N(CCCO)C(=O)[C@@H]4[C@@H]12 (some centres undefined) | Human papillomavirus type 1a protein E7 (residues 44-93) | low |
| Cc1ccccc1C(O)C1C=CC2C(=O)N(C)C(=O)C2N1N1CCCCC1 (centres undefined) | Human papillomavirus type 1a protein E7 (residues 44-93) | high |
| CCCCC=C[C@@H](NC(=O)c1ccco1)c1ccccc1 | Human papillomavirus type 1a protein E7 (residues 44-93) | low |
| C=CCOC(=O)[C@@H]1[C@H]2C(=O)O[C@H](c3ccccc3)[C@H](c3ccccc3)N2[C@H](c2ccc(OCCOC(=O)[C@@H]3C[C@@H]4C(=O)N[C@@H](Cc5ccccc5)C(=O)N4[C@@H]3c3cccc(OCCO)c3)cc2)[C@@]12C(=O)Nc1ccc(I)cc12 | Human papillomavirus type 1a protein E7 (residues 44-93) | high |
| CN1C=C(C(=O)OCCS(C)(=O)=O)C(C(=O)OCCS(C)(=O)=O)=CC(CCCO)=CC1C1CC1 (centres undefined) | Human papillomavirus type 1a protein E7 (residues 44-93) | intermediate |
| COc1c(C)cc(-c2cc3c(c(-c4ccc(Oc5ccccc5)cc4)n2)[Si](C(C)C)(C(C)C)OC3)cc1C | Human papillomavirus type 1a protein E7 (residues 44-93) | intermediate |
| C=C[C@H](C)[C@@H](O)c1ccc(O)c2ccccc12 | Human papillomavirus type 1a protein E7 (residues 44-93) | low |

###

target.desc: Carbonic anhydrase 2 (Homo sapiens) (UniProt P00918)
protocol: CAII small-molecule binders, profiling panel, biochemical, small-molecule microarray, Alexa647-labelled CAII (AID 1122)
experimental.conditions: CAII-A647 binding fluorescence, higher = more signal
Values of composite z-score greater than or equal to 0.4 map to Yes; values below map to No.

| molecule | target.desc | class |
| --- | --- | --- |
| O=C1O[C@H](c2ccccc2)[C@H](c2ccccc2)N2[C@H]1[C@@H](C(=O)NC[C@H](O)c1ccccc1)[C@]1(C(=O)Nc3ccc(C#CCCO)cc31)[C@H]2c1ccc(O)cc1 | Carbonic anhydrase 2 (Homo sapiens) (UniProt P00918) | No |
| O=C1c2ccccc2[C@@]2(Cc3ccccc3N(Cc3ccccc3)C2=O)[C@H](c2ccc(CO)cc2)N1C1CCCCC1 | Carbonic anhydrase 2 (Homo sapiens) (UniProt P00918) | Yes |
| CC(=O)NCCCC[C@@H]1NC(=O)[C@H]2C[C@@H](C(=O)NCCCCCC[N+](C)(C)C)[C@@H](c3cccc(OCCO)c3)N2C1=O | Carbonic anhydrase 2 (Homo sapiens) (UniProt P00918) | Yes |
| CC(C)CNC(=O)[C@@]1(c2ccc([N+](=O)[O-])cc2)CC(=O)N(CC23CC4CC(CC(C4)C2)C3)[C@@H]1c1ccc(CO)cc1 | Carbonic anhydrase 2 (Homo sapiens) (UniProt P00918) | Yes |
| COCCOC(=O)N1C(=O)[C@@]2(c3cc(C#CCCO)ccc31)[C@H](c1ccccc1OCCO)N1[C@H](c3ccccc3)[C@H](c3ccccc3)OC(=O)[C@H]1[C@@H]2C(=O)N1CCN(c2ncccn2)CC1 | Carbonic anhydrase 2 (Homo sapiens) (UniProt P00918) | Yes |
| CC(=O)Nc1cc(Br)ccc1C(=O)O | Carbonic anhydrase 2 (Homo sapiens) (UniProt P00918) | No |
| C=CC(COC(C)=O)NS(=O)(=O)c1ccc(Br)cc1 (configuration not stated) | Carbonic anhydrase 2 (Homo sapiens) (UniProt P00918) | No |

###

The following molecules are listed with their measured z-score values.
protocol: P. aeruginosa biofilm formation inhibitors, primary screen, strain PAO1, LB-PBS medium, absorbance 600 nm (AID 1176); further: test concentration not given here
experimental.conditions: P. aeruginosa PAO1 growth/biofilm, A600, 12 h; higher = more signal

| molecule | z-score |
| --- | --- |
| COCCOC(=O)N1C(=O)[C@@]2(c3cc(C#CCC(C(=O)OC)C(=O)OC)ccc31)[C@H](c1ccccc1OCCO)N1[C@H](c3ccccc3)[C@H](c3ccccc3)OC(=O)[C@H]1[C@@H]2C(N)=O | 0.774 |
| O=C(OCCF)C1=CCC(c2cccc(Cl)c2)O1 (stereo not drawn) | -0.212 |
| [N-]=[N+]=NCc1ccccc1C[C@@]1(C(=O)NCC(O)CO)N=C(c2ccc(OCCCO)cc2)O[C@@H]1c1ccccc1CN=[N+]=[N-] (stereo partly drawn) | 2.33 |
| COCCOC(=O)N1C(=O)[C@@]2(c3cc(C#CCCO)ccc31)[C@H](c1ccccc1OCCO)N1[C@H](c3ccccc3)[C@H](c3ccccc3)OC(=O)[C@H]1[C@@H]2C(=O)N1CCN(c2ncccn2)CC1 | 1.6 |
| O=C1C2C=CC(C(O)c3ccc(-c4ccccc4)s3)N(n3cnnc3)C2C(=O)N1Cc1ccccc1 (stereo not drawn) | 0.092 |
| O=C1C=CC(=O)[C@@H]2CC(COc3ccccc3)=C3[C@@H](CCc4ccccc4)OB(O)C[C@@H]3[C@H]12 | 0.212 |
| O=C1C[C@@](C(=O)NC2CC2)(c2ccc([N+](=O)[O-])cc2)[C@@H](c2ccc(CO)cc2)N1CC12CC3CC(CC(C3)C1)C2 | -0.273 |
| COC(=O)c1ccc(C23CC2(C(NP(=O)(c2ccccc2)c2ccccc2)c2ccccc2)C3)cc1 (stereo not drawn) | 0.287 |
| COc1ccc(C(O)C2C=CC3C(=O)NC(=O)C3N2Nc2ccccn2)cc1OCc1ccccc1 (stereo not drawn) | 1.48 |
| C=CC[C@@H](OC(=O)Nc1ccc(OC)cc1)c1ccc(O)c2ccccc12 | 1.73 |
| COC(=O)[C@@]1(Cc2ccc(F)cc2)[C@H]2c3cc(C(=O)N4CCCC4)n(Cc4cccc5ccccc45)c3C[C@H]2CN1C(=O)c1ccccc1 | 0.784 |
| CC(C)N1C(=O)[C@@]2(c3ccc([N+](=O)[O-])cc3)CC(=O)N(CC34CC5CC(CC(C5)C3)C4)[C@@H]2c2ccc(CO)cc21 | -0.0902 |
| COCCOC(=O)N1C(=O)[C@@]2(c3cc(C#Cc4ccc(OC)cc4)ccc31)[C@H](C(=O)N1CCN(c3ncccn3)CC1)[C@H]1C(=O)O[C@H](c3ccccc3)[C@H](c3ccccc3)N1[C@@H]2c1ccc(O)cc1 | 1.42 |
| [N-]=[N+]=Nc1ccccc1[C@H]1OC(c2ccc(OCCCO)cc2)=N[C@@]1(CCS(=O)(=O)c1ccccc1)C(=O)O | -0.319 |
| Cc1ccc(S[C@]2(C(=O)NC3CC3)CC(=O)N(Cc3ccccc3)[C@@H]2c2ccc(CO)cc2)cc1 | 0.196 |
| O=C1N(CCS(=O)(=O)c2ccccc2)Cc2ccccc2[C@H]2OC(c3ccc(OCCCO)cc3)=N[C@@]12CCS(=O)(=O)c1ccccc1 | 0.0533 |
| COc1ccc(CCNC(=O)[C@@]2(Sc3ccc(C)cc3)CC(=O)N(Cc3ccccc3Cl)[C@@H]2c2ccc(CO)cc2I)cc1 | 0.379 |
| CCCN1C(=O)[C@@]2(CCC(=O)OC(C)(C)C)N=C(c3ccc(OCCCO)cc3)O[C@H]2c2ccccc21 | 0.717 |
| CN1C=C(C(=O)OCCS(C)(=O)=O)C(C(=O)OCCS(C)(=O)=O)=CC(CCCO)=CC1C1CC1 (stereo not drawn) | -0.353 |
| COC(=O)c1ccc(C(O)C2C=CC3C(=O)N(C)C(=O)C3N2NC(=O)OC(C)(C)C)o1 (stereo not drawn) | 0.599 |
| COc1ccc(C(O)C2C=CC3C(=O)N(C)C(=O)C3N2Nc2ccccc2)cc1OCc1ccccc1 (stereo not drawn) | 1.03 |
| CO[C@H]1O[C@H](CO)[C@@H](OC(=O)Nc2ccc(Oc3ccccc3)cc2)[C@H](OC(=O)Nc2ccccc2)[C@H]1OC(=O)Nc1ccccc1 | 1.97 |
| O=C1N(CCS(=O)(=O)c2ccccc2)Cc2ccccc2C[C@]12N=C(c1ccc(OCCCO)cc1)O[C@@H]2c1ccccc1 | 0.0658 |
| CC(C)CNC(=O)[C@@]1(c2ccc([N+](=O)[O-])cc2)CC(=O)N(CC23CC4CC(CC(C4)C2)C3)[C@@H]1c1ccc(CO)cc1 | 0.913 |
| Cc1c(NC(=O)CC#N)c(=O)n(-c2ccccc2)n1C | 0.531 |
| COC(=O)[C@@]1(Cc2ccc(OC)cc2)[C@H]2c3cc(C(=O)N4CCCC4)n(Cc4cc(F)cc5c4OCOC5)c3C[C@H]2CN1C(=O)c1ccccc1 | 0.687 |
| COc1ccc([Si](C)(C)[C@@H]2[C@@H](CC(=O)N(CCO)Cc3ccccc3)O[C@]3(C(=O)N(C)c4ccccc43)[C@H]2C)cc1 | 0.708 |
| COc1cc2c(cc1OC)CN(C(=O)[C@@H]1[C@H]3C(=O)O[C@H](c4ccccc4)[C@H](c4ccccc4)N3[C@H](c3ccccc3OCCO)[C@@]13C(=O)Nc1ccc(C#CCNC(N)=O)cc13)CC2 | 2.93 |

Values from PubChem BioAssay
